Test system: HL-60
Assay: NCI tumour cell line growth inhibition, 48 h
Activity calls are given as the source filed them. No stated cut-off is given here; in the data, active = GI50 up to about 1.1 µM and inactive = higher. Non-standard residues stand in square brackets, D forms with d. Residues, ends and D or L forms follow the SMILES beside them. *: point of attachment. Bn2Val = CC(C)[C@@H](C(=O)*)N(Cc1ccccc1)Cc1ccccc1; NMeV = CN[C@H](C(=O)O)C(C)C; X32 = COc1ccc(CN*)c(OC)c1; dNMeA = CN[C@H](C)C(=O)O
Outcome codes: 1 (yes) = active, 0 (no) = inactive

[[record]]
compound = "CC(C)CNC(=O)c1c(NC(=O)c2ccccc2)sc2[nH]c(=O)n(-c3ccccc3)c(=O)c12"
class_label = "0 (no)"

[[record]]
compound = "CCCN(CCC)CCc1ccc(OC2=CCN(C)CC2)cc1"
class_label = "0 (no)"

[[record]]
compound = "CC(C)/C(Cl)=N/OC(NC(=O)Nc1ccc(Cl)c(Cl)c1)(C(F)(F)F)C(F)(F)F"
class_label = "0 (no)"

[[record]]
compound = "CCNC1CC(n2cc(C)c(=O)[nH]c2=O)OC1CO (stereo not given)"
class_label = "0 (no)"

[[record]]
compound = "COc1ccc(CNC(=O)[C@@H]2CCCN2C(=O)[C@@H](C)N(C)C(=O)[C@H](C(C)C)N(C)C(=O)[C@@H](NC(=O)[C@H](C(C)C)N(Cc2ccccc2)Cc2ccccc2)C(C)C)c(OC)c1 (Bn2Val-V[NMeV][dNMeA]P-X32)"
class_label = "1 (yes)"

[[record]]
compound = "O=C(Nc1nnc(-c2ccccc2)o1)C(SC(=S)N1CCOCC1)c1ccccc1 (stereo not given)"
class_label = "0 (no)"

[[record]]
compound = "CCOC(=O)CCc1c(C)c2ccc(O)cc2oc1=O"
class_label = "0 (no)"

[[record]]
compound = "COC1=CC(=O)C(Br)=CC1=O"
class_label = "0 (no)"

[[record]]
compound = "COc1ccc(/C=C/c2ccnc3ccccc23)cc1"
class_label = "0 (no)"

[[record]]
compound = "CSc1c(C#N)c(S)[nH]c(=O)c1C#N"
class_label = "0 (no)"

[[record]]
compound = "NCCNS(=O)(=O)c1ccc(N)cc1"
class_label = "0 (no)"

[[record]]
compound = "CC(=O)O[C@H]1CC[C@]2(C=O)[C@H]3CC[C@]4(C)[C@@H](C5=CC(=O)OC5)CC[C@]4(O)[C@@H]3CC[C@]2(O)C1 [STROPHANTHIDIN ACETATE]"
class_label = "1 (yes)"

[[record]]
compound = "COc1ccc(CNc2nc(NCc3ccc(OC)cc3)nc(NC3CCCC3)n2)cc1"
class_label = "0 (no)"

[[record]]
compound = "Cc1ccc(Nc2nc(=O)c3c([nH]c4ccccc43)s2)cc1"
class_label = "0 (no)"

[[record]]
compound = "CCOC(=O)/C=C(\\C(=O)OCC)n1cc(C)c(=O)n(Cc2cnnn2COCCOC(C)=O)c1=O"
class_label = "0 (no)"

[[record]]
compound = "COc1ccc(C2C=C(c3ccc4c(c3)OCO4)Oc3c2c(=O)oc2ccccc32)cc1OC (stereo not given)"
class_label = "1 (yes)"

[[record]]
compound = "O=C1Nc2ccccc2/C1=N/Nc1nc(-c2cccc([N+](=O)[O-])c2)cs1"
class_label = "0 (no)"

[[record]]
compound = "CC(C)(C)C1=NN=C2c3ccccc3C(=O)C21 (stereo not given)"
class_label = "0 (no)"

[[record]]
compound = "Cc1c(CNc2ccc(Cl)c(Cl)c2Cl)cnc2nc(N)nc(N)c12"
class_label = "1 (yes)"

[[record]]
compound = "COc1ccc(/C=C(\\Cl)c2ccc(OC)c(OC)c2)cc1OC"
class_label = "0 (no)"


====

Tested on: UO-31
Assay: NCI tumour cell line growth inhibition, 48 h
Active and inactive are the calls of the source. Cut-off read from the data, not from the text of the source: active = GI50 up to about 1.1 µM and inactive = higher.
Possible outcomes: active, inactive

[[record]]
molecule = "CC(=O)N1N=C(c2ccc3ccccc3c2O)CC1c1cccs1 (stereo unspecified)"
class_label = "inactive"

[[record]]
molecule = "CCn1cc(C(=O)O)c(=O)c2cc(F)c(N3CCNCC3)nc21 [ENOXACIN]"
class_label = "inactive"

[[record]]
molecule = "COc1cc2c(cc1OC)C(c1ccccc1CCCCl)=NCC2"
class_label = "inactive"

[[record]]
molecule = "O=C1CCCCN1"
class_label = "inactive"

[[record]]
molecule = "COc1ccc(/C=C/c2ccnc3ccccc23)cc1"
class_label = "active"

[[record]]
molecule = "O=[N+]([O-])c1ccc(-n2nc3ccc4c(no[n+]4[O-])c3[n+]2[O-])c([N+](=O)[O-])c1"
class_label = "inactive"

[[record]]
molecule = "CO/C(N)=C(C#N)/N=C/c1ccc2ccccc2c1"
class_label = "inactive"

[[record]]
molecule = "CN(/N=C/c1ccccc1O)c1ccc2ccccc2n1"
class_label = "inactive"

[[record]]
molecule = "NC(=S)N/N=C1/CN(c2ccc(Cl)c(Cl)c2)CC(=O)C1c1nc2ccccc2s1 (stereo unspecified)"
class_label = "inactive"

[[record]]
molecule = "O=C(Nc1nnc(-c2ccccc2)o1)C(SC(=S)N1CCOCC1)c1ccccc1 (stereo unspecified)"
class_label = "inactive"

[[record]]
molecule = "CC(C)C1=CC23CCC4C(C)(C(=O)O)CCCC4(C)C2CC1C1C(=O)N(c2ccccc2)C(=O)C13 (stereo unspecified)"
class_label = "inactive"


====

System: UACC-62
Assay: NCI tumour cell line growth inhibition, 48 h
The source made the active and inactive calls. Rule as the data show it: active = GI50 up to about 1.1 µM and inactive = higher.
Possible outcomes: active, inactive

[[record]]
molecule = "O=c1cc(-c2ccccc2)[nH]c2ccc(N3CCCCC3)cc12"
assay_system = "UACC-62"
class_label = "active"

[[record]]
molecule = "CC1=CCCC(OC(N)=O)C1 (stereo unspecified)"
assay_system = "UACC-62"
class_label = "inactive"

[[record]]
molecule = "CC(C)(C)C1CCC2c3c([nH]c4ccccc34)C3C(=O)N(c4ccc([N+](=O)[O-])cc4)C(=O)C3C2C1 (stereo unspecified)"
assay_system = "UACC-62"
class_label = "inactive"

[[record]]
molecule = "CCOC(=O)c1cnc2oc3ccc(O)cc3c2c1-c1ccccc1"
assay_system = "UACC-62"
class_label = "inactive"

[[record]]
molecule = "COc1ccc(NC=O)c(C(O)CCNC(C)=O)c1 (stereo unspecified)"
assay_system = "UACC-62"
class_label = "inactive"

[[record]]
molecule = "C[C@@H]1C[C@@]2(O[C@@H]2C)C(=O)O[C@@H]2CCN3CC=C(COC(=O)[C@]1(C)O)[C@H]23"
assay_system = "UACC-62"
class_label = "inactive"

[[record]]
molecule = "Nc1ccccc1SC(/C=C/NNC1=NN=C(c2ccccc2)C(c2ccccc2)N1)c1ccccc1 (stereo unspecified)"
assay_system = "UACC-62"
class_label = "inactive"

[[record]]
molecule = "Clc1ccc(C[P+]2(c3ccccc3)CCCCC2)cc1.[O-][Cl+3]([O-])([O-])[O-]"
assay_system = "UACC-62"
class_label = "inactive"

[[record]]
molecule = "O=C(O)c1ccccc1NC(=S)c1ccccc1"
assay_system = "UACC-62"
class_label = "inactive"

[[record]]
molecule = "CSc1nc(NC2OCC(OC(C)=O)C(OC(C)=O)C2OC(C)=O)c(/N=C\\C=N\\c2c(NC3OCC(OC(C)=O)C(OC(C)=O)C3OC(C)=O)nc(SC)[nH]c2=O)c(=O)[nH]1 (stereo unspecified)"
assay_system = "UACC-62"
class_label = "inactive"

[[record]]
molecule = "O=C(c1ccccc1)C(c1ccccc1)C1(O)C(=O)Nc2ccc(Br)cc21 (stereo unspecified)"
assay_system = "UACC-62"
class_label = "inactive"

[[record]]
molecule = "COc1ccc(N[S+]([O-])CCCc2ccccc2)cc1 (stereo unspecified)"
assay_system = "UACC-62"
class_label = "inactive"

[[record]]
molecule = "Clc1cc2nn(C3CCCCO3)nc2cc1Cl (stereo unspecified)"
assay_system = "UACC-62"
class_label = "inactive"

[[record]]
molecule = "Cc1ccccc1C(C#N)C(=O)C(=O)Nc1nc([N+](=O)[O-])cs1 (stereo unspecified)"
assay_system = "UACC-62"
class_label = "inactive"

[[record]]
molecule = "Cc1ccc2nc(NC(=O)C(=O)C3C(=O)NC(=S)NC3=O)sc2c1"
assay_system = "UACC-62"
class_label = "inactive"

[[record]]
molecule = "COC(=O)/C(=N\\NC(=O)c1ccccc1O)C(C#N)c1ccc(Cl)cc1 (stereo unspecified)"
assay_system = "UACC-62"
class_label = "inactive"

[[record]]
molecule = "O=S(=O)(c1cccc(C(F)(F)F)c1)N1c2ccccc2-n2cccc2C1c1cccnc1 (stereo unspecified)"
assay_system = "UACC-62"
class_label = "inactive"

[[record]]
molecule = "CCNC1CC(n2cc(C)c(=O)[nH]c2=O)OC1CO (stereo unspecified)"
assay_system = "UACC-62"
class_label = "inactive"

[[record]]
molecule = "O=c1[nH]c(Nc2nc3ccccc3[nH]2)nc2c1CCC2"
assay_system = "UACC-62"
class_label = "inactive"

[[record]]
molecule = "COC(=O)c1ccc(Oc2nc3ccc(C(F)(F)F)cc3nc2-c2ccccc2)cc1"
assay_system = "UACC-62"
class_label = "inactive"

[[record]]
molecule = "CCN=C=NCCCN(C)C"
assay_system = "UACC-62"
class_label = "inactive"

